- assay_procedure: Cytotoxicity against human HepG2(2.2.15) cells
- Format: cell-based
CC50 reference

Task: What does the record list as CC50 for "CC1(C)[C@@H](O)CC[C@]2(C)[C@H]3C(=O)C=C4[C@@H]5C[C@@](C)(C(=O)OCc6ccc(I)cc6)CC[C@]5(C)CC[C@@]4(C)[C@]3(C)CC[C@@H]12" ?
Result: > 0.986 mM

Further cases:
Task: Dear colleague, I am looking for the recorded CC50 of the following compound: "COc1cc(/C=C/C(=O)O[C@H]2CC[C@]3(C)[C@H]4C(=O)C=C5[C@@H]6C[C@@](C)(C(=O)O)CC[C@]6(C)CC[C@@]5(C)[C@]4(C)CC[C@H]3C2(C)C)cc(OC)c1OC"
Result: > 1.16 mM

Task: Now consider C[C@H](Cn1cnc2c(N)ncnc21)OCP(=O)(O)O [TENOFOVIR ANHYDROUS] .
Result: > 1.76 mM

Task: What do you have for "COc1cc(/C=C/C(=O)O[C@H]2CC[C@]3(C)[C@H]4CC=C5[C@@H]6C[C@@](C)(C(=O)OCC(N)=O)CC[C@]6(C)CC[C@@]5(C)[C@]4(C)CC[C@H]3C2(C)C)cc(OC)c1OC" ?
Result: > 0.481 mM

Values from ChEMBL document CHEMBL2021793
